Target: Inward rectifier potassium channel 2 (Mus musculus) (UniProt P35561)
Sequence (P35561 whole entry, looked up): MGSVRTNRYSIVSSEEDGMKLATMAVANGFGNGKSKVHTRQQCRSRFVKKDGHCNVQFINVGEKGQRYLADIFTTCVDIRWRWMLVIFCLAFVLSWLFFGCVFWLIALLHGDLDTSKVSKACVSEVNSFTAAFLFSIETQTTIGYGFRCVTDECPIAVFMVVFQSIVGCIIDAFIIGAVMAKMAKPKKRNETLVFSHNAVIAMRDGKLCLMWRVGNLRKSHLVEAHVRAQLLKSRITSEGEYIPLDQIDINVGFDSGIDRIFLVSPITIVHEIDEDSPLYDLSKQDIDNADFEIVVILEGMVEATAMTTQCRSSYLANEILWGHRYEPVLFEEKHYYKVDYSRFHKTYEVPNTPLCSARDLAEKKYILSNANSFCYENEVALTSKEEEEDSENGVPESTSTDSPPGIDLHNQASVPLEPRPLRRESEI
Assay notes: mouse Kir2.1 channel inhibition, confirmation, selectivity assay for KCNK9 modulator project, cell-based, HEK293, thallium flux (AID 492993);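 on inhibition: signal is fluorescence rise after thallium addition divided by baseline fluorescence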
Setup conditions: Kir2.1 cells, FluxOR thallium flux fluorescence, at 10 µM
Among all 4,900 compounds or so, about 200 (4.1%) were called active.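 How the source made its calls: active means thallium signal drop more than 5 SD beyond the mean of the no-compound control wells, seen in both duplicate plates; inactive means the rest.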 The list is a sample of the results.
Outcomes: True (active), False (inactive)

CCOC(=O)CSc1nc2c(sc(=S)n2CCc2ccccc2)c(=O)n1Cc1ccco1
False
CC1=CC(C)(C)N(C(=O)CSc2nnc(-c3ccccc3)o2)c2ccc(C)cc21
False
Cc1ccc(OS(=O)(=O)c2ccc(-c3csc(C)n3)s2)c(C)c1
False
Brc1ccc(C2CC(c3ccccc3)=Nc3ccccc3N2)cc1 (stereo not given)
False
O=C1c2ccccc2S(=O)(=O)N1CC(O)Cn1c2ccccc2c2ccccc21 (stereo not given)
False
CCOc1ccc(OCc2ccc(C(=O)Nc3cccc(C)n3)o2)cc1
False
O=C(N/N=C/c1ccccn1)c1cccc(NC(=O)c2ccc(Cl)cc2)c1
False
CCC(c1nnnn1Cc1ccco1)N(CCc1ccccc1)Cc1cc2cccc(C)c2[nH]c1=O (stereo not given)
False
CCn1cnc2scc(-c3ccc(C)c(C)c3)c2c1=O
False
O=[N+]([O-])/C=C/c1ccc2c(ccn2Cc2ccccc2)c1
True

====

Target: Inward rectifier potassium channel 2 (Mus musculus) (UniProt P35561)
Assay notes: mouse Kir2.1 channel inhibition, confirmation, selectivity assay for KCNK9 modulator project, cell-based, HEK293, thallium flux (AID 492993);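 on inhibition: signal is fluorescence rise after thallium addition divided by baseline fluorescence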
Setup conditions: Kir2.1 cells, FluxOR thallium flux fluorescence, at 10 µM
Out of some 4,900 compounds screened, about 200 (4.1%) were called active.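 The calls were made as follows: active = thallium signal drop more than 5 SD beyond the mean of the no-compound control wells, seen in both duplicate plates; inactive = the rest.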 The list is a sample of the results.
Labels: T (active), F (inactive)

O=C(Nc1ccccc1[N+](=O)[O-])C1C(c2ccccc2)=C1c1ccccc1
F
O=C(NCCc1ccccc1)c1ccc2c(c1)N(Cc1ccccc1)CCS2
F
COc1ccc(C2Nc3ccccc3C(=O)N2Cc2ccccc2)cc1Cn1nnc2ccccc21 (stereo unspecified)
F
COc1ccc(OC)c(C(=O)c2coc3ccc(OC)cc23)c1
F
Clc1ccc(CSc2nnc(/C=C/c3ccccc3)o2)c(Cl)c1
F
Cc1ccc(NC(=O)c2cc([N+](=O)[O-])ccc2Cl)c(O)c1
F
CC(C)C(=O)Nc1cccc(NC(=S)NC(=O)C(c2ccccc2)c2ccccc2)c1
F
CCC(C)(C)n1nnnc1C(c1cccs1)N1CCN(c2nc3ccccc3s2)CC1 (stereo unspecified)
F
COc1cc(Cl)ccc1OCc1cc(C(=O)N2CC[C@@H]3CCCC[C@H]3C2)no1
F
CN(CCOc1ccccc1)C(=O)c1cc(COc2c(F)cccc2F)on1
F
CCc1cccc(C)c1N(C(=O)Cn1c(CO)nc2ccccc21)C(C)COC (stereo unspecified)
F
COc1ccccc1/C=C/C=N/n1c(-c2ccc(Cl)cc2Cl)n[nH]c1=S
F
Cc1ccc2c(c1)N(C(=O)CCC(=O)N1CCc3ccccc3C1)CCO2
F
Cc1cccc(N2CCN(C(=O)c3cccc(S(=O)(=O)N4CCc5ccccc5C4)c3)CC2C)c1 (stereo unspecified)
F
CCCCCCCCn1c2c(c(=N)c3c1CCC3)CCCC2
T
CCCCCCCCCCOC(=O)Cn1c(COc2cccc(OC)c2)[n+](C)c2ccccc21
T
CCCCCCCCCCOC(=O)Cn1c(COc2ccc(C)cc2)[n+](C)c2ccccc21
T
O=C(OCC(=O)N(CCc1ccccc1)Cc1ccccc1)c1ccccc1[N+](=O)[O-]
F
CC(C)(C)C1CCC(C(=O)NCC(c2cccs2)N2CCOCC2)CC1 (stereo unspecified)
F
Cc1cccc(NC(=O)c2sc3nc4c(c(-c5ccco5)c3c2N)CCC4)c1
F
O=C(Nc1ccc2c(c1)CCC2)c1cccc(S(=O)(=O)Nc2ccccc2Cl)c1
F

Origin of values: PubChem BioAssay AID492993
